Data provenance: patent US12617779B2

methodDescription: Evaluation of conversion rate to active form in buffer solution (Experimental Example 1)
Format: physicochemical
conditions: pH6.5, 1 hr
measurementType: Residual rate (%)

Observe how each entry below is paired with its result.
CN1CC[C@H](c2c(OC(=O)N(C)CCN)cc(O)c3c(=O)cc(-c4ccccc4Cl)oc23)[C@H](O)C1 [Comparative Example 13, reference compound]	20.0
CN1CC[C@H](c2c(O)cc(O)c3c(=O)cc(-c4ccccc4Cl)oc23)[C@H](OC(=O)CN)C1 [Comparative Example 8, reference compound]	53.9
CN1CC[C@H](c2c(O)cc(O)c3c(=O)cc(-c4ccccc4Cl)oc23)[C@H](OC(=O)[C@@H](N)CO)C1 [Comparative Example 9, reference compound]	66.2
CC(C)[C@H](N)C(=O)O[C@@H]1CN(C)CC[C@@H]1c1c(O)cc(O)c2c(=O)cc(-c3ccccc3Cl)oc12 [Comparative Example 10, reference compound]	87.4
CCNC(=O)O[C@@H]1CN(C)CC[C@@H]1c1c(O)cc(O)c2c(=O)cc(-c3ccccc3Cl)oc12 [Comparative Example 4, reference compound]	97.7

I: CNC(=O)O[C@@H]1CN(C)CC[C@@H]1c1c(O)cc(O)c2c(=O)cc(-c3ccccc3Cl)oc12 [Comparative Example 5, reference compound]
II: C[C@H](N)C(=O)O[C@@H]1CN(C)CC[C@@H]1c1c(O)cc(O)c2c(=O)cc(-c3ccccc3Cl)oc12 [Comparative Example 7, reference compound]
## Task Compare reported Residual rate values for I and II . Which is lower? Pick one; state its label.
## Result II
